# assay system: T1, glutamate dehydrogenase (rGDH, recombinant) (Clostridium difficile, UniProt P27346 SEQ:1-421)
# T1 sequence: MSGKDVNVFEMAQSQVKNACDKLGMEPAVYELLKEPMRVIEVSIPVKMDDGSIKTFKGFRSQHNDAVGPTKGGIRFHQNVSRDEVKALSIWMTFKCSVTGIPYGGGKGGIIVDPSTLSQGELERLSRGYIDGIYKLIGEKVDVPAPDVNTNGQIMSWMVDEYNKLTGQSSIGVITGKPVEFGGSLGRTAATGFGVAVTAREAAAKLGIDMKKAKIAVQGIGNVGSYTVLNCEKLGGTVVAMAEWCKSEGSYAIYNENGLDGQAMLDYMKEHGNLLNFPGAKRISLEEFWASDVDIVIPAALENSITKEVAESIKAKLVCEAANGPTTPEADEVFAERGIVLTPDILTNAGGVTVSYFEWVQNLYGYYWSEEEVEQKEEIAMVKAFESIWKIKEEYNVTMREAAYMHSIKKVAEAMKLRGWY
# assay info: pulldown
# assay context: tags: His-tag; expressed in E. coli; Pro-Lab Diagnostics; chain copies: 6; label: 32P; linear
readout kind: pKd
Give bare numbers, as −log10 of the molar value.

Sample Lapt-2 (Anti-G1) (ssDNA) DNA: CAGGTCCATCGAGTGGTAGGAGGAGGTATTTAGTGCCAAGCCATCTCAAACGACGTCTGAGTCGCACTGCTCCTGAACGTAC ; pKd observed: 8.25
